Biological target: T1, factor VIIIa A1/A3C1C2 dimer, wild type (human, UniProt P00451 20-391; P00451 1709-2351)
T1 sequence 1: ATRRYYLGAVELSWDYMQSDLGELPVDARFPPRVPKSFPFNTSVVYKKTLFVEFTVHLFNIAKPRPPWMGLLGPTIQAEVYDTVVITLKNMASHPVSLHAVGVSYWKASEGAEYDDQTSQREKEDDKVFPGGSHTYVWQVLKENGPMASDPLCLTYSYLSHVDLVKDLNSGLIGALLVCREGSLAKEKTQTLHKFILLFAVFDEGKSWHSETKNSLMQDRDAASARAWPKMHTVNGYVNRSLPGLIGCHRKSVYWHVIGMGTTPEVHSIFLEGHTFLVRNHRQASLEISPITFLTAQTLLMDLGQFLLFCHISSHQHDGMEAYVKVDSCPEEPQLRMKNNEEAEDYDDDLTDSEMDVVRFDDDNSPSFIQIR
T1 sequence 2: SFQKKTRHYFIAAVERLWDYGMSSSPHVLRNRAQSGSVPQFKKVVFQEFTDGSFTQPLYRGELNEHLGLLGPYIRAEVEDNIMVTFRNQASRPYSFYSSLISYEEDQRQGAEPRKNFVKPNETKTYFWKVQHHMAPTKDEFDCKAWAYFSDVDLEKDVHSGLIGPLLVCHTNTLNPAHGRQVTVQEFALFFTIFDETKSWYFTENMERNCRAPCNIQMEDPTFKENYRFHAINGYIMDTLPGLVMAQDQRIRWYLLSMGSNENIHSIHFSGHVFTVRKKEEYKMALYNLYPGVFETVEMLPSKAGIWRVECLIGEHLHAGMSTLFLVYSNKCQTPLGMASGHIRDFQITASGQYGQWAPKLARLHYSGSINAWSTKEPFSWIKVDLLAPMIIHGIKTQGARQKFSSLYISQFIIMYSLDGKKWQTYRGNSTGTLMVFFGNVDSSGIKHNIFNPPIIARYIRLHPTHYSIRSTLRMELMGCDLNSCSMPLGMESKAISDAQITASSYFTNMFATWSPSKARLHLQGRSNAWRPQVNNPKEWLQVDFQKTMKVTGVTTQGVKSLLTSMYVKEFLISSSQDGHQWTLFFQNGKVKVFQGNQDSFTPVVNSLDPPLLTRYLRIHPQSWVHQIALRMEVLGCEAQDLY
Test: cell-based or functional assay
metric: Factor VIIIa decay rate relative to wild type, FIXa (+)

>  <binder>
factor VIIIa A2 subunit, E683A (other) SVAKKHPKTWVHYIAAEEEDWDYAPLVLAPDDRSYKSQYLNNGPQRIGRKYKKVRFMAYTDETFKTREAIQHESGILGPLLYGEVGDTLLIIFKNQASRPYNIYPHGITDVRPLYSRRLPKGVKHLKDFPILPGEIFKYKWTVTVEDGPTKSDPRCLTRYYSSFVNMERDLASGLIGPLLICYKESVDQRGNQIMSDKRNVILFSVFDENRSWYLTENIQRFLPNPAGVQLEDPEFQASNIMHSINGYVFDSLQLSVCLHEVAYWYILSIGAQTDFLSVFFSGYTFKHKMVYEDTLTLFPFSGETVFMSMANPGLWILGCHNSDFRNRGMTALLKVSSCDKNTGDYYEDSYEDISAYLLSKNNAIEPR

>  <measured-result>
2.33 relative to wild type

$$$$
>  <binder>
factor VIIIa A2 subunit, wild type (other) SVAKKHPKTWVHYIAAEEEDWDYAPLVLAPDDRSYKSQYLNNGPQRIGRKYKKVRFMAYTDETFKTREAIQHESGILGPLLYGEVGDTLLIIFKNQASRPYNIYPHGITDVRPLYSRRLPKGVKHLKDFPILPGEIFKYKWTVTVEDGPTKSDPRCLTRYYSSFVNMERDLASGLIGPLLICYKESVDQRGNQIMSDKRNVILFSVFDENRSWYLTENIQRFLPNPAGVQLEDPEFQASNIMHSINGYVFDSLQLSVCLHEVAYWYILSIGAQTDFLSVFFSGYTFKHKMVYEDTLTLFPFSGETVFMSMENPGLWILGCHNSDFRNRGMTALLKVSSCDKNTGDYYEDSYEDISAYLLSKNNAIEPR

>  <measured-result>
1 relative to wild type

$$$$
